Molecular target: T1, CD22-Fc (R&D Systems Cat. No. 1968SL) (human, UniProt P20273 20-687)
T1 construct: Bought reagent; also called CD22 antigen; huCD22-Fc; not shown: Fc part of the bought fusion
T1 sequence (looked up): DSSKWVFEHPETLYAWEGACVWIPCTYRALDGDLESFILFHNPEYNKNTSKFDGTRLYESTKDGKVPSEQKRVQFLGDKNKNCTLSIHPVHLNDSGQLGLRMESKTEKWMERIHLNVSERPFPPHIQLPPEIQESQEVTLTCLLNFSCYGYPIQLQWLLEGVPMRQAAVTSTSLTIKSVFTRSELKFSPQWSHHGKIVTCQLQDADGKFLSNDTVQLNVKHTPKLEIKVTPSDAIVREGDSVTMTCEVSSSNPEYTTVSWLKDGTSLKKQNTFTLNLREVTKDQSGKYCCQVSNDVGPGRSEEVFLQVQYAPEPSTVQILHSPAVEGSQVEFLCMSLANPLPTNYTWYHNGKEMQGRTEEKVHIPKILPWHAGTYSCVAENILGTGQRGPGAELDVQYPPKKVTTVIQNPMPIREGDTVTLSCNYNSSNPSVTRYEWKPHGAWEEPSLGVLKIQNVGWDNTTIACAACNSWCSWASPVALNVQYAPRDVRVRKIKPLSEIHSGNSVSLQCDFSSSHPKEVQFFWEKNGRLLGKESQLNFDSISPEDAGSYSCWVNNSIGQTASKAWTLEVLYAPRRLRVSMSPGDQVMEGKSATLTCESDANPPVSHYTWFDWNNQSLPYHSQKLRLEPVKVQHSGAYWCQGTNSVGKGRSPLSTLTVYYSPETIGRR
Assay: competition ELISA on coated CD22-Fc; competitor biotinylated chimeric RFB4
Measured IC50 relative to Chimeric RFB4 IgG1, listed per entry for reference.

binder: humanized RFB4 antibody VH3/VK1 (antibody, human IgG1, V domains shown) VH: EVQLVESGGGLVKPGGSLKLSCAASGFAFSIYDMSWVRQAPGKGLEWVAYISSGGGTTYYPDTVKGRFTISRDNAKNTLYLQMSSLRAEDTAMYYCARHSGYGSSYGVLFAYWGQGTLVTVSS VL: DIQMTQSPSSLSASVGDRVTITCRASQDISNYLNWYQQKPGKAVKLLIYYTSILHSGVPSRFSGSGSGTDYTLTISSLQQEDFATYFCQQGNTLPWTFGGGTKVEIK
IC50 relative to Chimeric RFB4 IgG1: 0.8 relative to Chimeric RFB4 IgG1
//
binder: humanized RFB4 antibody VH5/VK2 (antibody, human IgG1, V domains shown) VH: EVQLVESGGGLVKPGGSLKLSCAASGFAFSIYDMSWVRQAPGKGLEWVAYISSGGGTTYYPDTVKGRFTISRDNAKNSLYLQMNSLRAEDTAMYYCARHSGYGSSYGVLFAYWGQGTLVTVSS VL: DIQMTQSPSSLSASVGDRVTITCRASQDISNYLNWYQQKPGKAVKLLIYYTSILHSGVPSRFSGSGSGTDYTLTISSLQPEDFATYFCQQGNTLPWTFGGGTKVEIK
IC50 relative to Chimeric RFB4 IgG1: 1 relative to Chimeric RFB4 IgG1
//
binder: humanized RFB4 antibody VH6/VK2 (antibody, human IgG1, V domains shown) VH: EVQLVESGGGLVKPGGSLKLSCAASGFAFSIYDMSWVRQAPGKGLEWVAYISSGGGTTYYPDTVKGRFTISRDNAKNSLYLQMSSLRAEDTAMYYCARHSGYGSSYGVLFAYWGQGTLVTVSS VL: DIQMTQSPSSLSASVGDRVTITCRASQDISNYLNWYQQKPGKAVKLLIYYTSILHSGVPSRFSGSGSGTDYTLTISSLQPEDFATYFCQQGNTLPWTFGGGTKVEIK
IC50 relative to Chimeric RFB4 IgG1: 1 relative to Chimeric RFB4 IgG1
